- Assay Procedure: yeast display, Sf9 membrane polyspecificity reagent, FACS + sequencing; frameworks hold sequencing errors
Observed Property: polyreactivity (PSR sort gate)

>  <Residues>
QVHLVESGGGLVQAGGSLRLSCAASGFTFRDYAMGWYRQAPGKERELVAAIDIGTTTYYADSVKGRFTISRDNAKNTVYLQMNSLKPEDTAVYYCAAYSFASVYFGTGYDYWGQGTQVTVSS

>  <Observed Property>
polyreactivity (PSR sort gate)

>  <Reading>
low polyreactivity

$$$$
>  <Residues>
QVQLVESGGGLVQAGGSLRLSCAASGRTFYTVYAMGWYRQAPGKERELVAAITKDGTTTYYADSVKGRFTISRDNAKNTVYLQMNSLKPEDTAVYYCNADVCQPWGGGEYNYWGQGTQVTVSS

>  <Observed Property>
polyreactivity (PSR sort gate)

>  <Reading>
high polyreactivity

$$$$
>  <Residues>
QGQLEESGGCLVQAGGSLRLSCAASGIIFYKNAMGWYRPAPGKERELVAAISGSGGRTYYADSVKGRFTISRDNAKNTVYLQMNSLKPEVTAVSYCAARQPYRHGYESWGQGTQVTVSS

>  <Observed Property>
polyreactivity (PSR sort gate)

>  <Reading>
high polyreactivity

$$$$
>  <Residues>
QVQLVESGGGLVQAGGSLRLSCAASGLIFYRYTMGWYRQAPGKEREFVAAITAGGSTYYADSVKGRFTISRDNAKNTVYVQMNSLKPEDTAVYYCATLVRLLQYTYIKYDYWGQGTQVTVSS

>  <Observed Property>
polyreactivity (PSR sort gate)

>  <Reading>
high polyreactivity

$$$$

Turning now to a further sequence:
Request: Entry QVQLVDSGGGLVQAGGSLRLSCAASGSTYSPNAMGWNRQAPGKERELVAAITGGGSTTYADSVQGRFTISRDNATNTVYLQMNSLKPEETAVYYCNTDGPRYARPFDSWGQGTQVTVSS needs its polyreactivity (PSR sort gate) filled in; supply it.
Result: low polyreactivity
